meta.source: ChEMBL document CHEMBL5634142

This section presents compounds with their documented CC50 at 72 h values.
- PROTOCOL: Cytotoxicity against human HepG2 cells assessed as reduction in cell viability incubated for 72 hrs by MTT assay
- Assay type: toxicity, cell-based

Solved entries:
[2H]C([2H])([2H])C(Nc1nc2cc(-c3ccc(C)cc3)sc2c(=O)[nH]1)C([2H])([2H])[2H]: > 10 µM
Cc1ccc(-c2cc3nc(NC(C)(C)C)n(C(C)C)c(=O)c3s2)cc1: > 3.9 µM

// field: CC50 at 72 h; key: Cc1ccc(-c2cc3nc(N4CCCC4)[nH]c(=O)c3s2)cc1 ; value = > 3.1 µM

###

- Tested on: Plasmodium falciparum
- PROTOCOL: Antiplasmodial activity against erythrocytic stage of chloroquine, pyrimethamine and sulfadoxine resistant Plasmodium falciparum K1 infected in human erythrocytes assessed as reduction in parasite growth incubated for 72 hrs by SYBR green I fluorescence based spectrophotometric analysis
- Format: functional, organism-based
- COND: K1, Erythrocyte
This section presents molecules with their documented pEC50 values.
Please treat pEC50 as minus the base-10 logarithm of the molar concentration.

Solved entries:
Cc1ccc(-c2cc3nc(N)n(CCCN(C)C)c(=O)c3s2)cc1: 5.01
[2H]C([2H])([2H])C(Nc1nc2cc(-c3ccc(C)cc3)sc2c(=O)[nH]1)C([2H])([2H])[2H]: 6.70

Okay, now this molecule:
// field: pEC50; key: Cc1ccc(-c2cc3nc(N4CCCC4)[nH]c(=O)c3s2)cc1 ; value = 5.85
